test: physchem; details: fassif, thermodynamic from solid
measured_property: solubility kinetic at 24 h (µg/mL)
Kindly provide the numeric value in µg/mL only, without the unit symbol.

stdin: Identify the reported solubility kinetic at 24 h for the following entry. C=CC(=O)N(C)CCOc1c(N)ncnc1-c1cc(F)cc(NC(=O)c2ccc(C3CC3)cc2F)c1C [Form J]
stdout: 16

====

assay: Kinetic solubility in SGF, FaSSIF, FeSSIF and pure water (HPLC); conditions: Fasted-State Simulated Intestinal Fluid (FaSSIF), fassif, thermodynamic from solid, Kinetic solubility, 1 hr
measured_property: solubility kinetic at 1 h (µg/mL)
Kindly provide the numeric value in µg/mL only, without the unit symbol.

stdin: Identify the reported solubility kinetic at 1 h for the following entry. C=CC(=O)N(C)CCOc1c(N)ncnc1-c1cc(F)cc(NC(=O)c2ccc(C3CC3)cc2F)c1C
stdout: 10

====

assay: Kinetic solubility in SGF, FaSSIF, FeSSIF and pure water (HPLC); details: Fasted-State Simulated Intestinal Fluid (FaSSIF), fassif, thermodynamic from solid, Kinetic solubility, 4 hr
measured_property: solubility kinetic at 4 h (µg/mL)
Kindly provide the numeric value in µg/mL only, without the unit symbol.

stdin: Identify the reported solubility kinetic at 4 h for the following entry. C=CC(=O)N(C)CCOc1c(N)ncnc1-c1cc(F)cc(NC(=O)c2ccc(C3CC3)cc2F)c1C [Amorphous]
stdout: 11

====

assay: physchem; conditions: simulated gastric fluid, thermodynamic from solid
measured_property: solubility kinetic at 1 h
The number alone won't do; follow it with the unit.

stdin: Identify the reported solubility kinetic at 1 h for the following entry. C=CC(=O)N(C)CCOc1c(N)ncnc1-c1cc(F)cc(NC(=O)c2ccc(C3CC3)cc2F)c1C [Form J]
stdout: 2400 µg/mL

====

experiment: physchem; conditions: simulated gastric fluid, thermodynamic from solid
measured_property: solubility kinetic at 4 h (mg/mL)
Kindly provide the numeric value in mg/mL only, without the unit symbol.

stdin: Identify the reported solubility kinetic at 4 h for the following entry. C=CC(=O)N(C)CCOc1c(N)ncnc1-c1cc(F)cc(NC(=O)c2ccc(C3CC3)cc2F)c1C [Form J]
stdout: 2.7

====

test: physchem; settings: simulated gastric fluid, thermodynamic from solid
measured_property: solubility kinetic at 24 h

stdin: Identify the reported solubility kinetic at 24 h for the following entry. C=CC(=O)N(C)CCOc1c(N)ncnc1-c1cc(F)cc(NC(=O)c2ccc(C3CC3)cc2F)c1C [Form J]
stdout: 2600 µg/mL

====

assay: Kinetic solubility in SGF, FaSSIF, FeSSIF and pure water (HPLC); conditions: Fed-State Simulated Intestinal Fluid (FeSSIF), fessif, thermodynamic from solid, Kinetic solubility, 24 hr
measured_property: solubility kinetic at 24 h (µg/mL)
Kindly provide the numeric value in µg/mL only, without the unit symbol.

stdin: Identify the reported solubility kinetic at 24 h for the following entry. C=CC(=O)N(C)CCOc1c(N)ncnc1-c1cc(F)cc(NC(=O)c2ccc(C3CC3)cc2F)c1C [Amorphous]
stdout: 33

====

assay: Kinetic solubility in SGF, FaSSIF, FeSSIF and pure water (HPLC); details: Simulated Gastric Fluid (SGF), simulated gastric fluid, thermodynamic from solid, Kinetic solubility, SGF, 24 hr
measured_property: solubility kinetic at 24 h
The number alone won't do; follow it with the unit.

stdin: Identify the reported solubility kinetic at 24 h for the following entry. C=CC(=O)N(C)CCOc1c(N)ncnc1-c1cc(F)cc(NC(=O)c2ccc(C3CC3)cc2F)c1C
stdout: 950 µg/mL
